experiment_summary: Therapeutic index, ratio of IC50 for mouse RAW264.7 cells to IC50 for mefloquine-resistant Plasmodium falciparum CDC Sierra Leone 1 D6
Type: cell-based
assay_setup: read-out: TI
Assign yes to entries whose selectivity ratio meets or exceeds 1; assign no to the rest.

Known results for compounds:
COc1cc(C)c2c(Oc3cccc(C(F)(F)F)c3)c(OC)cc(NC(C)CCCN)c2n1 (configuration not stated) = yes
COc1cc(C)c2c(-c3ccc(Cl)c(Cl)c3)c(OC)cc(NC(C)CCCN)c2n1.O=C(O)CCC(=O)O (configuration not stated) = no
COc1cc(C)c2c(-c3cccc(C(F)(F)F)c3)c(OC)cc(NC(C)CCCN)c2n1.O=C(O)CCC(=O)O (configuration not stated) = no

Kindly determine if selectivity ratio recorded for COc1cc(C)c2c(-c3ccccc3)c(OC)cc(NC(C)CCCN)c2n1.O=C(O)CCC(=O)O (configuration not stated) is above or exactly 1.
no

Again, but for COc1cc(NC(C)CCCN)c2nc(C(F)(F)F)cc(C)c2c1-c1ccccc1.O=C(O)CCC(=O)O (configuration not stated)
yes

Again, but for COc1cccc(-c2c(OC)cc(NC(C)CCCN)c3nc(C(F)(F)F)cc(C)c23)c1.O=C(O)CCC(=O)O (configuration not stated)
yes

Again, but for COc1cc(NC(C)CCCN)c2ncccc2c1 (configuration not stated)
yes

Again, but for COc1cc(NC(C)CCCN)c2nc(C(F)(F)F)cc(C)c2c1-c1cccc(C(F)(F)F)c1.O=C(O)CCC(=O)O (configuration not stated)
yes
